Origin of values: ChEMBL document CHEMBL4616721

What inhibition was measured for each of the following?
- systemTested: Adenosine receptor A2a (Homo sapiens, UniProt P29274)
- Sequence (P29274 whole entry): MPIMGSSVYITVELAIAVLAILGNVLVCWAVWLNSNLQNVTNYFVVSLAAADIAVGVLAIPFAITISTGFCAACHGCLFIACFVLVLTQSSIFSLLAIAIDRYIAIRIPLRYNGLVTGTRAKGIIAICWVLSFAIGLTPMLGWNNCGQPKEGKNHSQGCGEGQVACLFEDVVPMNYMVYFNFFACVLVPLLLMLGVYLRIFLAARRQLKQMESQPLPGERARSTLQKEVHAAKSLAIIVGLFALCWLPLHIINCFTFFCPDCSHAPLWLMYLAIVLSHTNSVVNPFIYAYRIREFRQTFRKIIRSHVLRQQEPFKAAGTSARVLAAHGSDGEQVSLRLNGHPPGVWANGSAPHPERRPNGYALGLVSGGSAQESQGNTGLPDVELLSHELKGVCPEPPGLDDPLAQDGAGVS
- methodSummary: Displacement [3H]ZM241385 from adenosine A2A receptor in human HeLa cell membranes at 1 uM incubated for 30 mins by scintillation counting method relative to control
Give bare numbers, in %.

compound: CCOC(=O)C1=C(C)Nc2nc3ccccc3n2C1c1ccon1 (racemic)
outputUnit: %
observedResult: 1
//
compound: CC1=C(C(=O)OC(C)C)C(c2cscn2)n2c(nc3ccccc32)N1 (racemic)
outputUnit: %
observedResult: 3
//
compound: CC1=C(C(=O)OC(C)C)C(c2ccc(C)o2)n2c(nc3ccccc32)N1 (racemic)
outputUnit: %
observedResult: 3
//
compound: CCOC(=O)C1=C(C)Nc2nc3ccccc3n2C1c1ccns1 (racemic)
outputUnit: %
observedResult: 7

Consider the additional compound presented here.
Query string: Quote Adenosine receptor A2a (Homo sapiens, UniProt P29274) inhibition for entry CCOC(=O)C1=C(C)Nc2nc3ccccc3n2C1c1cn[nH]c1 (racemic) .
Result string: 28

----------
- systemTested: UniProtKB P0DMS8
- Sequence (P0DMS8 whole entry): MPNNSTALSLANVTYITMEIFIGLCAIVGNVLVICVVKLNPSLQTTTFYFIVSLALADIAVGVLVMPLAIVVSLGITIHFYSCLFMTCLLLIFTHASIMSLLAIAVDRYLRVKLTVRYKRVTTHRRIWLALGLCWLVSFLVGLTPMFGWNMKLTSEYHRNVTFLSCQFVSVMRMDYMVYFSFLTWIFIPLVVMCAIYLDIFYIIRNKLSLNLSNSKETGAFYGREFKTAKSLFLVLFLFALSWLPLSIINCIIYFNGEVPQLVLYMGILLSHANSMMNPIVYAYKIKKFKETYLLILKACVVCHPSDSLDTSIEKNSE
- methodSummary: Displacement [3H]NECA from adenosine A3 receptor in human HeLa cell membranes at 1 uM incubated for 180 mins by scintillation counting method relative to control
Mark satisfied for reported inhibition of 8% or greater; mark not satisfied for anything smaller.

Recorded results for 7 compounds are shown here.
compound: CC1=C(C(=O)OC(C)C)C(c2ccc[nH]2)n2c(nc3ccccc32)N1 (racemic)
classLabel: not satisfied

compound: CCOC(=O)C1=C(C)Nc2nc3ccccc3n2C1C1CCCC1 (racemic)
classLabel: satisfied

compound: CC1=C(C(=O)OC(C)C)Cn2c(nc3ccccc32)N1
classLabel: satisfied

compound: CCOC(=O)C1=C(C)Nc2nc3ccccc3n2C1c1cc[nH]n1 (racemic)
classLabel: not satisfied

compound: CC1=C(C(=O)OC(C)C)C(c2ccon2)n2c(nc3ccccc32)N1 (racemic)
classLabel: not satisfied

compound: CC1=C(C(=O)OC(C)C)C(C2CCCC2)n2c(nc3ccccc32)N1 (racemic)
classLabel: satisfied

compound: CCOC(=O)C1=C(C)Nc2nc3ccccc3n2C1c1ccc(C)o1 (racemic)
classLabel: not satisfied

Query string: Tell me whether inhibition is at least 8% here: CC1=C(C(=O)OC(C)C)C(c2ccns2)n2c(nc3ccccc32)N1 (racemic)
Result string: not satisfied

----------
Please respond with reported pKi for every item in the list.
- systemTested: Adenosine receptor A2b (Homo sapiens)
- Sequence (P29275 whole entry): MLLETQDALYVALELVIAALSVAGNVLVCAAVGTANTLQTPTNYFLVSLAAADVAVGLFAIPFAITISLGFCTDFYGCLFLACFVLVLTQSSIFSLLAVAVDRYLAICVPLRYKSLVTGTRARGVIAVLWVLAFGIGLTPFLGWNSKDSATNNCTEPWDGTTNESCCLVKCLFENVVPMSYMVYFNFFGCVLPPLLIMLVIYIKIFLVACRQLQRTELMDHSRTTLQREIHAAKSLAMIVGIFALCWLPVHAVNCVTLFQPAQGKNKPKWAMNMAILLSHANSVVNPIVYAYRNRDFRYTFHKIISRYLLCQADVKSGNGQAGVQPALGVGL
Answers are plain numbers, as −log10 of the molar value.

Worked cases, answers included:
compound: CCOC(=O)C1=C(C)Nc2nc3ccccc3n2C1c1cn[nH]c1 (racemic)
observedResult: 7.03
//
compound: CCOC(=O)C1=C(C)Nc2nc3ccccc3n2C1c1ncco1 (racemic)
observedResult: 6.11
//
compound: CC1=C(C(=O)OC(C)C)C(c2cn[nH]c2)n2c(nc3ccccc32)N1 (racemic)
observedResult: 6.47
//
compound: CCOC(=O)C1=C(C)Nc2nc3ccccc3n2C1c1cncs1 (racemic)
observedResult: 6.67
//
compound: CC1=C(C(=O)OC(C)C)C(c2cncs2)n2c(nc3ccccc32)N1 (racemic)
observedResult: 7.17

Okay, here is my list. What is pKi for each of these?
1. CC1=C(C(=O)OC(C)C)C(c2ncco2)n2c(nc3ccccc32)N1 (racemic)
2. CCOC(=O)C1=C(C)Nc2nc3ccccc3n2C1c1cc[nH]c1 (racemic)
3. CCOC(=O)C1=C(C)Nc2nc3ccccc3n2C1c1ccno1 (racemic)
4. CC1=C(C(=O)OC(C)C)C(c2cc[nH]n2)n2c(nc3ccccc32)N1 (racemic)
5. CC1=C(C(=O)OC(C)C)C(c2cc[nH]c2)n2c(nc3ccccc32)N1 (racemic)
6. CC1=C(C(=O)OC(C)C)C(c2cocn2)n2c(nc3ccccc32)N1 (racemic)

Result string:
1: 6.15; 2: 6.35; 3: 6.15; 4: 5.96; 5: 6.29; 6: 7.36
